The values you see were collected from PubChem BioAssay (NCI).

Test system: RPMI-8226 leukemia
Assay: NCI tumour cell line growth inhibition, 48 h

# molecule, TGI
rows = [
    ("O=S(=O)(O)c1ccc([Se][Se]c2ccc(S(=O)(=O)O)cc2)cc1", "> 100 µM"),
    ("CCn1c(C)nc([N+](=O)[O-])c1Sc1ncc[nH]1", "> 100 µM"),
    ("COc1ccc(COc2ccc(Cc3cnc(N)nc3N)cc2OC)cc1", "> 25 µM"),
    ("CC(=O)Nc1ccc2c(c1)[nH]c(=O)c1cc(NC(C)=O)ccc12", "> 100 µM"),
    ("O=C(Nc1ccc([N+](=O)[O-])cc1Cl)c1cc(Cl)ccc1O", "0.287 µM"),
    ("COc1cc(/C=[N+](\\[O-])c2ccccc2Cl)ccc1OC(=S)S", "> 100 µM"),
    ("O/N=C1/C(=C/c2ccc(Br)cc2)CCCC1C(NO)c1ccc(Br)cc1 (centres undefined)", "48.4 µM"),
    ("O=C1/C(=C/Cc2ccco2)N=C(c2ccccc2)N1c1nc2ccc(Sc3ccccc3)cc2[nH]1", "> 100 µM"),
    ("COC(=O)C1=C(C(=O)OC)SC2(S1)C(C(=O)OC)=C(C(=O)OC)Sc1c2ssc1=O", "5.68 µM"),
    ("Cn1c(=Nc2ccccc2[N+](=O)[O-])sc2ccccc21", "> 100 µM"),
    ("Fc1ccc(Nc2ccnc(N3CCN(c4ccnc5cc(Cl)ccc45)CC3)n2)cc1", "6.22 µM"),
    ("C#CCn1c(=O)c2cc(OC)c(OC)cc2n(CC#C)c1=O", "> 10 µM"),
    ("OCC1OC(NO)C(O)C(O)C1O (centres undefined)", "> 100 µM"),
    ("CC1=NN(c2ccccc2)C(=O)C1N=Nc1ccc(Br)cc1C (centres undefined)", "> 100 µM"),
]

###

Quick reference: TGI of the listed items.
Tested on: SK-MEL-2 melanoma
Test: NCI tumour cell line growth inhibition, 48 h

# compound, TGI
data = [
    ("C[C@]12CC[C@@H]3c4cc(C=O)c(OCc5ccccc5)cc4CC[C@H]3[C@@H]1CCC2OCc1ccccc1 (stereo not given in full)", "> 100 µM"),
    ("OC[C@@H](O)[C@H](O)[C@H](O)[C@@H](O)C1SCCCS1", "> 100 µM"),
    ("COc1ccc(C2[C@@H](Cl)C(=O)N2c2ccc(OC)cc2)cc1 (stereo not given in full)", "> 100 µM"),
    ("O=C(O)Cn1cnc2c(=O)[nH]c(Nc3ccccc3)nc21", "> 100 µM"),
    ("c1ccc(OCC[P+](c2ccccc2)(c2ccccc2)c2ccccc2)cc1", "10.8 µM"),
]

###

System: CCRF-CEM leukemia
Assay: NCI tumour cell line growth inhibition, 48 h

# input-smiles, GI50
data = [
    ("O=C(O)[C@@H](Cc1ccccc1)NS(=O)(=O)c1ccc(-c2ccccc2)cc1", "> 100 µM"),
    ("CC(C)Cc1cc(-c2cccn2C)c(C#N)c(=O)[nH]1", "23.4 µM"),
    ("CN1CCN(CCCn2c3c(sc4ncccc43)c(=O)n3nnc(-c4ccccc4)c23)CC1", "1.57 µM"),
]

###

System: TK-10 renal
Experiment: NCI tumour cell line growth inhibition, 48 h

# compound, TGI
rows = [
    ("CN(C)CC(O)CNC(=O)Nc1ccccc1 (centres undefined)", "> 100 µM"),
    ("CC1(/C=C/c2ccc(-c3ccccc3)cc2)CCn2cnc3ncnc(c32)N1O (centres undefined)", "> 100 µM"),
    ("COc1ccc(/C=N/NC(=O)NCCNCCO)cc1", "> 100 µM"),
    ("CCc1cc2c(cc1O)CC[C@@H]1[C@@H]2CC[C@]2(C)[C@@H](O)CC[C@@H]12", "60.9 µM"),
    ("C=C1C(O)C2OC(=O)C(=C)C2C(OC(=O)/C(C)=C/C)CC2(C)OC2C2OC12 (centres undefined)", "47.2 µM"),
    ("CN1CCN(CCCn2c3c(sc4ncccc43)c(=O)n3nnc(-c4ccccc4)c23)CC1", "10.7 µM"),
    ("O=C(Nc1c(Cl)cccc1Cl)Oc1cccc2cccnc12", "> 100 µM"),
    ("CCC(/C(=N/NC(=O)C[N+](C)(C)C)c1ccccc1)C1OC(=O)c2ccccc21 (centres undefined)", "> 100 µM"),
    ("O=C1/C(=C/c2ccc(C(=O)O)cc2)CNC/C1=C\\c1ccc(C(=O)O)cc1", "> 100 µM"),
    ("Cc1ccc(O)c(C(=O)/C=C/c2ccccc2)c1", "> 100 µM"),
    ("Cc1ccccc1N=C(c1ccccc1)C1C(=O)c2ccccc2C1=O", "38.5 µM"),
    ("CC(=O)Nc1ccc2c(c1)[nH]c(=O)c1cc(NC(C)=O)ccc12", "> 100 µM"),
    ("COC(=O)[C@@]1(Cc2ccc(OC(C)=O)cc2)Cc2cc3ccccc3n2N1", "> 100 µM"),
    ("Cc1ccc2c(=O)cc(-c3ccccc3)[nH]c2n1", "> 9.36 µM"),
]
